molecular target: Muscarinic acetylcholine receptor (Homo sapiens) (UniProt P20309+P08173+P11229+P08172+P08912); experiment: Tested for agonist activity at muscarinic receptor in guinea pig ileum, expressed as equipotent molar ratio relative to carbamylcholine.; assay type: functional, tissue-based; conditions: Cavia porcellus
Parameter EPMR: see the listing below.
Form field (numeric): enter value without unit.

Example results:
C[C@H]1CCC(=O)N1CC#CCN(C)C; 73.9
CC1CCC(=O)N1CC#CCN(C)C (racemic); 8.8
C[C@@H]1CCC(=O)N1CC#CC[N+](C)(C)C.[I-]; 1.2

Give me measured EPMR, please, for this molecule: O=C1CCCN1CC#CCN1CCCC1 0.42

Give me measured EPMR, please, for this molecule: C[C@@H]1CCC(=O)N1CC#CCN(C)C 4.6

Give me measured EPMR, please, for this molecule: C[C@H]1CCC(=O)N1CC#CC[N+](C)(C)C.[I-] 20

* * *

Parameter ED50: see the listing below.
target: Muscarinic acetylcholine receptor (Homo sapiens) (UniProt P20309+P08173+P11229+P08172+P08912); test: Tested for agonist activity at Muscarinic acetylcholine receptor in guinea pig ileum; format: functional, tissue-based; settings: Cavia porcellus, target entry is the homologue from another species
Entry rule: numbers only, all in µM l-1.

Example results:
CC1CCC(=O)N1CC#CCN(C)C (racemic); 0.55
C[C@@H]1CCC(=O)N1CC#CCN(C)C; 0.29

Could you now look at the following compound, please?
Give me measured ED50, please, for this compound: C[C@H]1CCC(=O)N1CC#CCN(C)C 4.6

* * *

assay: Acute toxicity in mice; type: organism-based; conditions: mouse, in vivo
Metric: LD50 (µmol/kg)
Entry rule: numbers only, all in µmol/kg.

Example results:
C[C@H]1CCC(=O)N1CC#CC[N+](C)(C)C.[I-]; 3.5
C[C@@H]1CCC(=O)N1CC#CCN(C)C; 426
C[C@@H]1CCC(=O)N1CC#CCN1CCCC1; 45

Give me measured LD50, please, for this molecule: C[C@H]1CCC(=O)N1CC#CCN1CCCC1 40

Give me measured LD50, please, for this molecule: C[C@H]1CCC(=O)N1CC#CCN(C)C 183

Give me measured LD50, please, for this molecule: C[C@@H]1CCC(=O)N1CC#CC[N+](C)(C)C.[I-] 8.9

Give me measured LD50, please, for this molecule: O=C1CCCN1CC#CCN1CCCC1 6.7

Where do these numbers come from? They come from ChEMBL document CHEMBL1122860.
